# measurement_notes: Clearance in BALB/c mouse at 5 mg/kg, iv by LC-MS/MS analysis
# Format: ADME, organism-based
# Parameters: dose 5 mg/kg, route intravenous
# reported_conditions: in vivo
measured_metric: clearance

query_smiles=CN1C/C=C/CCOc2cccc(c2)-c2ccnc(n2)Nc2cccc(c2)C1 observed_result="110 mL/min/kg"

---

# tested_system: Cyclin-dependent kinase 2/cyclin A (Homo sapiens)
# measurement_notes: Inhibition of recombinant Cdk2/cyclin A using RbING as substrate after 2 hrs by luminescence assay
pIC50: −log10 of the molar value.
measured_metric: pIC50

query_smiles=CCS(=O)(=O)c1ccc2cc1CN(C)C/C=C/CCOc1cccc(c1)-c1ccnc(n1)N2 operator== observed_result=7.66
query_smiles=CC(C)(C)CN1C/C=C/CCOc2cccc(c2)-c2ccnc(n2)Nc2cccc(c2)C1 operator=< observed_result=5.00
query_smiles=O=C1CC/C=C\COc2cccc(c2)-c2ccnc(n2)Nc2cccc(c2)N1 operator== observed_result=5.59
query_smiles=CN1C/C=C/CCOc2cccc(c2)-c2ccnc(n2)Nc2ccc(OCCN3CCCCC3)c(c2)C1 operator== observed_result=6.59
query_smiles=Cc1cc2nc(n1)Nc1cccc(c1)CN(C)C/C=C/CCOc1cccc-2c1 operator== observed_result=5.33
query_smiles=CN1C/C=C/CCOc2cccc(c2)-c2ccnc(n2)Nc2ccc(OCCN3CCOCC3)c(c2)C1 operator== observed_result=6.52
query_smiles=C1=C/CN(CC2CC2)Cc2cccc(c2)Nc2nccc(n2)-c2cccc(c2)OCC/1 operator== observed_result=7.03
query_smiles=CN1C/C=C/CCOc2cccc(c2)-c2ccnc(n2)Nc2ccc(OC(F)(F)F)c(c2)C1 operator== observed_result=7.24
query_smiles=COc1ccc2cc1CN(C)C/C=C/CCOc1cccc(c1)-c1ccnc(n1)N2 operator== observed_result=7.11
query_smiles=C1=C/CNc2cccc(c2)Nc2nccc(n2)-c2cccc(c2)OCC/1 operator== observed_result=6.82
query_smiles=CN1C/C=C/CCOc2cccc(c2)-c2ccnc(n2)Nc2ccc(OCCN3CCCC3)c(c2)C1 operator== observed_result=6.60
query_smiles=CN1C/C=C/COCc2cccc(c2)Nc2nccc(n2)-c2cccc(c2)C1 operator== observed_result=7.00
query_smiles=COCCN1C/C=C/CCOc2cccc(c2)-c2ccnc(n2)Nc2cccc(c2)C1 operator== observed_result=6.39
query_smiles=COc1cc2cc(c1OCCN1CCCC1)CN(C)C/C=C/CCOc1cccc(c1)-c1ccnc(n1)N2 operator== observed_result=5.17
query_smiles=CN1CCN(CCOc2ccc3cc2CN(C)C/C=C/CCOc2cccc(c2)-c2ccnc(n2)N3)CC1 operator== observed_result=6.05
query_smiles=CN1C/C=C/CCOc2cccc(c2)-c2ccnc(n2)Nc2ccc(OCC(=O)N3CCCC3)c(c2)C1 operator== observed_result=6.41
query_smiles=FC(F)(F)CN1C/C=C/CCOc2cccc(c2)-c2ccnc(n2)Nc2ccc(OCCN3CCCC3)c(c2)C1 operator=< observed_result=5.00
query_smiles=N#CCN1C/C=C/CCOc2cccc(c2)-c2ccnc(n2)Nc2ccc(OCCN3CCCC3)c(c2)C1 operator== observed_result=6.51
query_smiles=O=C(N1C/C=C/CCOc2cccc(c2)-c2ccnc(n2)Nc2cccc(c2)C1)C(F)(F)F operator=< observed_result=5.00

---

# tested_system: Receptor-type tyrosine-protein kinase FLT3 (Homo sapiens)
# Sequence (P36888 whole entry): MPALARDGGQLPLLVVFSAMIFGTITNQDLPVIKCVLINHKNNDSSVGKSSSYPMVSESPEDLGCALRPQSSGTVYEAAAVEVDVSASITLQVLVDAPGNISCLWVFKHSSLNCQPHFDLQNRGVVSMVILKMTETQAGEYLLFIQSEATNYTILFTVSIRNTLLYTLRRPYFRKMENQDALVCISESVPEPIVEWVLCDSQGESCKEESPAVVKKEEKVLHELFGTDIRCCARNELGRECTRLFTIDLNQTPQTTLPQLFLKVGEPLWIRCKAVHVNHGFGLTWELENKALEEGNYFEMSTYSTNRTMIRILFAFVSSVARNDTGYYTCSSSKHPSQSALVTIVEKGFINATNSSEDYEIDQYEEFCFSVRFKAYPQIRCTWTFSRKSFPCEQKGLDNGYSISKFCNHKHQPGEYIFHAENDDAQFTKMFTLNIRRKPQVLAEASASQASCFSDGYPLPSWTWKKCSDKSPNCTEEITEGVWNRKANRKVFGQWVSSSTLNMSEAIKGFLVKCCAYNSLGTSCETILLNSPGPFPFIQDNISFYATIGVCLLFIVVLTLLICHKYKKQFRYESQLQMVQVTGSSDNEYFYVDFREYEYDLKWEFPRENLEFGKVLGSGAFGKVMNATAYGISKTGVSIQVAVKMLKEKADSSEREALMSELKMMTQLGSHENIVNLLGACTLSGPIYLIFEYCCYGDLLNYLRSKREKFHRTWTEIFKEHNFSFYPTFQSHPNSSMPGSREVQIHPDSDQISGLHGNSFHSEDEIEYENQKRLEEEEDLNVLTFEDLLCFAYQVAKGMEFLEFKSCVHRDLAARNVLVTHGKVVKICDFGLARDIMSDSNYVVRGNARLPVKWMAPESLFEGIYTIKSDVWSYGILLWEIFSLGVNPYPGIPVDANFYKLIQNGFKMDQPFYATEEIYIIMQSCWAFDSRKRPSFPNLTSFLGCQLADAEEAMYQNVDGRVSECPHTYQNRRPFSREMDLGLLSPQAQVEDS
# measurement_notes: Inhibition of recombinant Flt3 using poly(Glu,Tyr) as substrate after 2 hrs by luminescence assay
pIC50: −log10 of the molar value.
measured_metric: pIC50

query_smiles=CN1C/C=C/CCOc2cccc(c2)-c2cc(N3CCCC3)nc(n2)Nc2cccc(c2)C1 tested_system="Receptor-type tyrosine-protein kinase FLT3 (Homo sapiens)" measured_metric=pIC50 operator=< observed_result=5.00
query_smiles=COCCOc1ccc2cc1CN(C)C/C=C/CCOc1cccc(c1)-c1ccnc(n1)N2 tested_system="Receptor-type tyrosine-protein kinase FLT3 (Homo sapiens)" measured_metric=pIC50 operator== observed_result=7.60
query_smiles=CN1C/C=C/CCOc2cccc(c2)-c2ccnc(n2)Nc2ccc(OCCN3CCOCC3)c(c2)C1 tested_system="Receptor-type tyrosine-protein kinase FLT3 (Homo sapiens)" measured_metric=pIC50 operator== observed_result=7.40
query_smiles=COCCN1C/C=C/CCOc2cccc(c2)-c2ccnc(n2)Nc2cccc(c2)C1 tested_system="Receptor-type tyrosine-protein kinase FLT3 (Homo sapiens)" measured_metric=pIC50 operator== observed_result=6.31
query_smiles=CN1C/C=C/CCOc2cccc(c2)-c2ccnc(n2)Nc2ccc(OC(F)(F)F)c(c2)C1 tested_system="Receptor-type tyrosine-protein kinase FLT3 (Homo sapiens)" measured_metric=pIC50 operator== observed_result=6.80
query_smiles=Cc1cc2nc(n1)Nc1cccc(c1)CN(C)C/C=C/CCOc1cccc-2c1 tested_system="Receptor-type tyrosine-protein kinase FLT3 (Homo sapiens)" measured_metric=pIC50 operator== observed_result=5.77
query_smiles=COc1ccc2cc1OCC/C=C/CN(C)Cc1cccc(c1)Nc1nccc-2n1 tested_system="Receptor-type tyrosine-protein kinase FLT3 (Homo sapiens)" measured_metric=pIC50 operator== observed_result=6.51
query_smiles=OCCN1C/C=C/CCOc2cccc(c2)-c2ccnc(n2)Nc2cccc(c2)C1 tested_system="Receptor-type tyrosine-protein kinase FLT3 (Homo sapiens)" measured_metric=pIC50 operator== observed_result=6.46
query_smiles=C1=C/CN(CC2CC2)Cc2cccc(c2)Nc2nccc(n2)-c2cccc(c2)OCC/1 tested_system="Receptor-type tyrosine-protein kinase FLT3 (Homo sapiens)" measured_metric=pIC50 operator== observed_result=6.57
query_smiles=CN1C/C=C/CCOc2cccc(c2)-c2ccnc(n2)Nc2cc(cc(NC(=O)C(F)(F)F)c2)C1 tested_system="Receptor-type tyrosine-protein kinase FLT3 (Homo sapiens)" measured_metric=pIC50 operator== observed_result=7.72
query_smiles=CN1C/C=C/CC(=O)Nc2cccc(c2)-c2ccnc(n2)Nc2cccc(c2)C1 tested_system="Receptor-type tyrosine-protein kinase FLT3 (Homo sapiens)" measured_metric=pIC50 operator== observed_result=5.56
